Each item that follows carries a reported GI50.
test system: UO-31 renal; test: NCI tumour cell line growth inhibition, 48 h

Study these solved cases before continuing.
{"COMPOUND": "O=C([CH-]C(=O)c1ccccc1)c1ccccc1.[CH2-]C.[CH2-]C.[Tl+3]", "MEASURED_ENDPOINT": "GI50", "RESULT": "22300 nM"}
{"COMPOUND": "Nc1c([N+](=O)[O-])ncn1C1OC(CO)C(O)C1O (stereo unspecified)", "MEASURED_ENDPOINT": "GI50", "RESULT": "> 100000 nM"}
{"COMPOUND": "COc1ccc(C2=NOC3=c4ccccc4=CSC3=C2c2ccccc2)cc1", "MEASURED_ENDPOINT": "GI50", "RESULT": "39200 nM"}
{"COMPOUND": "CNc1ccc(CSc2ccc(C)cc2)cc1", "MEASURED_ENDPOINT": "GI50", "RESULT": "1160 nM"}
{"COMPOUND": "COc1cc2c(cc1OC)C(Sc1ccc(Cl)cc1)c1c(nc(N)c(C#N)c1N)O2 (stereo unspecified)", "MEASURED_ENDPOINT": "GI50", "RESULT": "1210 nM"}
{"COMPOUND": "COc1ccccc1CNCCCN1C(=O)c2ccc3c4c(ccc(c24)C1=O)C(=O)N(CCCNCCCCN)C3=O", "MEASURED_ENDPOINT": "GI50", "RESULT": "1950 nM"}

Prompt line: What GI50 value was documented for this compound, "CN1CCC(C(=O)Nc2n[nH]c3nnc(-c4ccccc4)cc23)CC1" ?
Response line: > 25000 nM

Prompt line: What GI50 value was documented for this compound, "NCC[PH+](c1ccccc1)c1ccccc1.NCC[PH+](c1ccccc1)c1ccccc1.[Cl-].[Pt+4]" ?
Response line: > 100000 nM

Prompt line: What GI50 value was documented for this compound, COc1ccc2cc1Oc1ccc(cc1)CC1c3c(cc(OC)c4c3Oc3cc5c(cc3O4)CCNC5C2)CCN1C (stereo unspecified) ?
Response line: 1670 nM

Prompt line: What GI50 value was documented for this compound, "Cc1ncc([N+](=O)[O-])n1CCOc1ccc(C(=O)/C=C/c2ccc(C(F)(F)F)cc2)cc1" ?
Response line: 1480 nM

Prompt line: What GI50 value was documented for this compound, "OCCN1CCCN(CCCN2c3ccccc3Sc3ccc(C(F)(F)F)cc32)CC1" ?
Response line: 2300 nM

###

system: CAKI-1 renal; test: NCI tumour cell line growth inhibition, 48 h; in the data active = GI50 below about 0.43 µM; inactive = the rest
Form entry, call: pick from active, inactive

{"COMPOUND": "CC[C@]1(O)C[C@@H]2CN(CCc3c([nH]c4ccccc34)[C@@](C(=O)OC)(c3cc4c(cc3OC)N(C)[C@H]3[C@@](O)(C(=O)OC)[C@H](OC(=O)CCCBr)[C@]5(CC)C=CCN6CC[C@]43[C@@H]65)C2)C1", "ASSAY_SYSTEM": "CAKI-1 renal", "CLASS": "active"}
{"COMPOUND": "O=C([CH-]C(=O)c1ccccc1)c1ccccc1.[CH2-]C.[CH2-]C.[Tl+3]", "ASSAY_SYSTEM": "CAKI-1 renal", "CLASS": "inactive"}
{"COMPOUND": "COc1ccccc1CNCCCN1C(=O)c2ccc3c4c(ccc(c24)C1=O)C(=O)N(CCCNCCCCN)C3=O", "ASSAY_SYSTEM": "CAKI-1 renal", "CLASS": "inactive"}

Prompt line: Tell me the assay call for "O=C(NCCNC1=CC(=O)c2nc3ccccc3c3ccnc1c23)c1cnccn1" please.
Response line: inactive

Prompt line: Tell me the assay call for "c1ccc(-c2nc3ccccc3[nH]2)c(OCCCCCOc2ccccc2-c2nc3ccccc3[nH]2)c1" please.
Response line: inactive

Prompt line: Tell me the assay call for "COC(=O)c1sc(=S)c2sc(C(=O)OC)c(C(=O)OC)c2c1C(=O)OC" please.
Response line: inactive

Prompt line: Tell me the assay call for CN(Cc1cnc2nc(N)nc(N)c2n1)c1c(Cl)cc(C(=O)NC(CCC(=O)O)C(=O)O)cc1Br (stereo unspecified) please.
Response line: active

Prompt line: Tell me the assay call for "Cn1cc(C2=C(c3cccc([N+](=O)[O-])c3)C(=O)NC2=O)c2ccccc21" please.
Response line: inactive

###

system: NCI-H522 lung; assay: NCI tumour cell line growth inhibition, 48 h
MEASURED_ENDPOINT: TGI (µM)
Express it in µM; write the number only.

Study these solved cases before continuing.
{"MOLECULE": "O=C(Cc1csc2nc(-c3ccc(Br)cc3)cn12)N/N=C/c1ccccc1O", "NUMERIC_VALUE": 27.2}
{"MOLECULE": "Cn1c(COC(=O)NC2CCCCC2)c(COC(=O)NC2CCCCC2)c2ccc3ccccc3c21", "NUMERIC_VALUE": 31.5}

Prompt line: What TGI value was documented for this molecule, CCCC/C=C1/CCC(CN(C)C)C1=O (stereo unspecified) ?
Response line: 1.39

###

test system: UO-31 renal; test: NCI tumour cell line growth inhibition, 48 h
Each item that follows carries a reported TGI.

Study these solved cases before continuing.
{"COMPOUND": "c1ccc2c(c1)n1nnnc1c1nnnn21", "TGI": "> 100 µM"}
{"COMPOUND": "O=c1ccc(=O)c2c1c1[nH]c3ccccc3c1c1c(=O)c3ccccc3c(=O)c21", "TGI": "> 10 µM"}
{"COMPOUND": "O=c1[nH]c2ccccc2c(=O)n1/N=C\\c1ccccc1O", "TGI": "> 100 µM"}
{"COMPOUND": "CN1CCC(C(=O)Nc2n[nH]c3nnc(-c4ccccc4)cc23)CC1", "TGI": "> 25 µM"}
{"COMPOUND": "Cc1ccccc1NC(=O)C(=O)CC(=O)c1sc(-n2nc(-c3ccccc3)cc2-c2ccccc2)nc1C", "TGI": "> 100 µM"}
{"COMPOUND": "Cc1nc2sc(C(=O)Nc3cccc(Cl)c3)c(N)c2cc1C(O)c1ccccc1 (configuration not stated)", "TGI": "15.6 µM"}

Prompt line: What TGI value was documented for this compound, "CCOC(=O)c1cnc2c(ccc3ncccc32)c1OCC" ?
Response line: > 100 µM

###

Each item that follows carries a reported TGI.
system: OVCAR-3 ovarian; test: NCI tumour cell line growth inhibition, 48 h
Express it in µM; write the number only.

Study these solved cases before continuing.
{"MOLECULE": "COc1cc(OC)c(OC)cc1/C=C\\c1ccnc2ccccc12", "TGI [µM]": 7.44}
{"MOLECULE": "Cc1cc(=O)[nH]c2c1C(=O)c1c(C)cc(=O)n(C)c1C2=O", "TGI [µM]": 0.151}
{"MOLECULE": "COc1cc(C(=O)Nc2ccc(-c3nc4ccccc4[nH]3)cc2)cc(OC)c1OC", "TGI [µM]": 27.9}

Prompt line: What TGI value was documented for this molecule, "CC(C)OC(=O)c1cc(NC(=S)OC(C)C)ccc1Cl" ?
Response line: 48.3

Prompt line: What TGI value was documented for this molecule, CC(=O)O[C@H]1C(=O)[C@@]2(C)C([C@H](OC(=O)c3ccccc3)[C@]3(O)C[C@H](OC(=O)[C@H](O)[C@@H](NC(=O)c4ccc(Cl)cc4)c4ccccc4)C(C)=C1C3(C)C)C1(OC(C)=O)CO[C@@H]1C[C@@H]2O (stereo partly drawn) ?
Response line: 0.108

Prompt line: What TGI value was documented for this molecule, "COc1ccc(-c2nn(-c3cccc(Cl)c3)cc2-c2c(C#N)c(=O)n3[nH]c(-c4ccc(C)o4)nc3c2C#N)cc1" ?
Response line: 19

###

system: HCT-15 colon; assay: NCI tumour cell line growth inhibition, 48 h
MEASURED_ENDPOINT: GI50

Study these solved cases before continuing.
{"COMPOUND": "COc1ccccc1CNCCCN1C(=O)c2ccc3c4c(ccc(c24)C1=O)C(=O)N(CCCNCCCCN)C3=O", "ASSAY_SYSTEM": "HCT-15 colon", "MEASURED_ENDPOINT": "GI50", "RESULT": "1850 nM"}
{"COMPOUND": "Nc1c([N+](=O)[O-])ncn1C1OC(CO)C(O)C1O (stereo not given)", "ASSAY_SYSTEM": "HCT-15 colon", "MEASURED_ENDPOINT": "GI50", "RESULT": "> 100000 nM"}
{"COMPOUND": "O=C(Cc1csc2nc(-c3ccc(Br)cc3)cn12)N/N=C/c1ccccc1O", "ASSAY_SYSTEM": "HCT-15 colon", "MEASURED_ENDPOINT": "GI50", "RESULT": "952 nM"}
{"COMPOUND": "COc1ccc(C2CC(c3cccc(Nc4ccncc4)c3)=NN2c2ccccc2)cc1 (stereo not given)", "ASSAY_SYSTEM": "HCT-15 colon", "MEASURED_ENDPOINT": "GI50", "RESULT": "1740 nM"}

Prompt line: What GI50 value was documented for this compound, CCCCCCC1CCCCN1C(c1ccccc1)C(O)c1ccccc1 (stereo not given) ?
Response line: 5390 nM
